Target: T1, IL10Rα/IL2Rγ receptor (human, UniProt Q13651 22-578; P31785 23-369)
T1 sequence (looked up) 1: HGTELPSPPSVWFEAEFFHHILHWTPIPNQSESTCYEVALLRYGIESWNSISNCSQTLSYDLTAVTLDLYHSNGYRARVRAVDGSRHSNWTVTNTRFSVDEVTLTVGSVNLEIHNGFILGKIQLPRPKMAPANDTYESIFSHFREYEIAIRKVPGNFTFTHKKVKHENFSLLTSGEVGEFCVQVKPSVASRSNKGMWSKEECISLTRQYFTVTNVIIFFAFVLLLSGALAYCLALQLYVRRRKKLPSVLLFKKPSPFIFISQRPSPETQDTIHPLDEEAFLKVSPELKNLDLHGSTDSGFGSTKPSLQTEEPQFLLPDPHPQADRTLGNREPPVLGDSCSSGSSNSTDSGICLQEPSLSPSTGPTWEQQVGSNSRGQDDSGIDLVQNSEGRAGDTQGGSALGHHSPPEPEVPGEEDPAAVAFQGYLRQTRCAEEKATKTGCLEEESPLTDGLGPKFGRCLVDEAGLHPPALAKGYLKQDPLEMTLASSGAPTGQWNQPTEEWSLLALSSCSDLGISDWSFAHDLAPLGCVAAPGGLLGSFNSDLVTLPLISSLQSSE
T1 sequence (looked up) 2: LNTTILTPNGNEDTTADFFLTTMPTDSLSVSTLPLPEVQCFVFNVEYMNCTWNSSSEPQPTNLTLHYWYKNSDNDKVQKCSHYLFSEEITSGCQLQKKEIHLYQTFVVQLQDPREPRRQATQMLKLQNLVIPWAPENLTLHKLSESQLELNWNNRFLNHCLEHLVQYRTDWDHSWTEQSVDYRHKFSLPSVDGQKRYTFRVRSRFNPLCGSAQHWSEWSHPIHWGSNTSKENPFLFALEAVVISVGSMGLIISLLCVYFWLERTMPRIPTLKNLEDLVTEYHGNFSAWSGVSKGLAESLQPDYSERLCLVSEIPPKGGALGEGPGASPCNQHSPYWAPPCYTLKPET
Test: cell-based or functional assay
Cut-off 2000 MFI on pSTAT3 MFI, Monocytes, 100 nM (unstimulated 1787), inclusive. At or above means MET; below means NOT MET.

Solved cases (3 shown):
DR444(DR236-DR234) (bispecific antibody) QVQLQESGGGSVQAGGSLRLSCAASRFTYSSYCMGWFRQAPGKEREGVASIDSDGSTSYTDSVKGRFTISKDNAKNTLYLQMNSLKPEDTAMYYCALDLMSTVVPGFCGFLLSAGMDYWGKGTQVTVSSGGGSQVQLQESGGGSVQAGGSLRLSCVASGYTFSSYCMGWFRQAPGKEREGVAALGGGSTYYADSVKGRFTISQDNAKNTLYLQMNSLKPEDTAMYYCAAAWVACLEFGGSWYDLARYKHWGQGTQVTVSSASHHHHHH: NOT MET
DR474(DR241-DR234) (bispecific antibody) QVQLQESGGGSVQAGGSLRLSCAASGYSNCSYDMTWYRQAPGKEREFVSAIHSDGSTRYADSVKGRFFISQDNAKNTVYLQMNSLKPEDTAMYYCKTDPLHCRAHGGSWYSVRANYWGQGTQVTVSSGGGSQVQLQESGGGSVQAGGSLRLSCVASGYTFSSYCMGWFRQAPGKEREGVAALGGGSTYYADSVKGRFTISQDNAKNTLYLQMNSLKPEDTAMYYCAAAWVACLEFGGSWYDLARYKHWGQGTQVTVSSASHHHHHH: MET
DR466(DR240-DR232) (bispecific antibody) QVQLQESGGGSVQAGGSLRLSCGASGYTYSSYCMGWFRQVPGKEREGVAVIDSDGSTSYADSVKGRFTISKDNGKNTLYLQMNSLKPEDTAMYYCAADLGHYRPPCGVLYLGMDYWGKGTQVTVSSGGGSQVQLQESGGGSVQAGGSLRLSCVASGYTSCMGWFRQAPGKEREAVATIYTRGRSIYYADSVKGRFTISQDNAKNTLYLQMNSLKPEDIAMYSCAAGGYSWSAGCEFNYWGQGTQVTVSSASHHHHHH: NOT MET

Tell me whether pSTAT3 MFI, Monocytes, 100 nM (unstimulated 1787) is at least 2000 MFI here: DR438(DR235-DR234) (bispecific antibody) QVQLQESGGGSVQAGGSLRLSCAASRYLYSIDYMAWFRQSPGKEREPVAVIYTASGATFYPDSVKGRFTISQDNAKMTVYLQMNSLKSEDTAMYYCAAVRKTDSYLFDAQSFTYWGQGTQVTVSSGGGSQVQLQESGGGSVQAGGSLRLSCVASGYTFSSYCMGWFRQAPGKEREGVAALGGGSTYYADSVKGRFTISQDNAKNTLYLQMNSLKPEDTAMYYCAAAWVACLEFGGSWYDLARYKHWGQGTQVTVSSASHHHHHH
NOT MET

hey, is pSTAT3 MFI, Monocytes, 100 nM (unstimulated 1787) for this one >= 2000 MFI? DR442(DR236-DR232) (bispecific antibody) QVQLQESGGGSVQAGGSLRLSCAASRFTYSSYCMGWFRQAPGKEREGVASIDSDGSTSYTDSVKGRFTISKDNAKNTLYLQMNSLKPEDTAMYYCALDLMSTVVPGFCGFLLSAGMDYWGKGTQVTVSSGGGSQVQLQESGGGSVQAGGSLRLSCVASGYTSCMGWFRQAPGKEREAVATIYTRGRSIYYADSVKGRFTISQDNAKNTLYLQMNSLKPEDIAMYSCAAGGYSWSAGCEFNYWGQGTQVTVSSASHHHHHH
NOT MET

Test whether the binder DR449(DR237-DR233) (bispecific antibody) QVQLQESGGGSVQAGGSLRLSCAASGYTYSMYCMGWFRQAPGKEREGVAQINSDGSTSYADSVKGRFTISKDNAKNTLYLQMNSLKPEDTAMYYCAADSRVYGGSWYERLCGPYTYEYNYWGQGTQVTVSSGGGSQVQLQESGGGSVQAGGSLRLSCTASGFTFDDSDMGWYRQAPGNECELVSTISSDGSTYYADSVKGRFTISQDNAKNTVYLQMNSLKPEDTAVYYCAAEPRGYYSNYGGRRECNYWGQGTQVTVSSASHHHHHH records pSTAT3 MFI, Monocytes, 100 nM (unstimulated 1787) of 2000 MFI or higher.
NOT MET

Hi team, for DR441(DR236-DR231) (bispecific antibody) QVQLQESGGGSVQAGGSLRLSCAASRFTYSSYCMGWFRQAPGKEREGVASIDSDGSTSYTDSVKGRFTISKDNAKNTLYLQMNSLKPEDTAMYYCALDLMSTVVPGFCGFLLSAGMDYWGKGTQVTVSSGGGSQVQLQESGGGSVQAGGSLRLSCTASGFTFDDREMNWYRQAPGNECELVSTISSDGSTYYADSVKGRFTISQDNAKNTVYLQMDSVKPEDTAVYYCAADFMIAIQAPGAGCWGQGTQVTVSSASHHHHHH , is the recorded pSTAT3 MFI, Monocytes, 100 nM (unstimulated 1787) at or above 2000 MFI?
MET
